System: M14 melanoma
Assay: NCI-60 one-dose screen, 48 h (100 = growth as untreated, 0 = no growth, -100 = all killed)
Conditions: 10 µM
About 83,000 compounds went through this panel and 20% of them were active in at least one assay; those are over-represented in the sample as a whole.
# growth values compiled below
Provide only the numeric value, understood in %.

COc1ccc(C(=O)CC(CC(=O)c2ccc(OC)cc2)c2c(C)nn(-c3ccccc3)c2Cl)cc1 :: 90.5

Form field: reported growth of Cc1cn(-c2cccc(NC(=O)c3ccc(C)c(Nc4nccc(-c5cccnc5)n4)c3)c2)cn1
22.6

Quick one: O=C1/C=C/[C@@H](O)[C@@H]2C[C@@H](O)C[C@H]2/C=C/CCC[C@H](CCc2ccc(C(F)(F)F)cc2)O1
7.65

Quick one: NC1=NC(c2ccc(Cl)cc2)C2=C(N1)/C(=C/c1ccc(Cl)cc1)CCC2 (centres undefined)
11

====

System: 786-0 renal
Assay: NCI-60 one-dose screen, 48 h
Details: 10 µM
This is part of a sample that, as a whole, favours compounds with a hit. Of some 83,000 tested, about 20% had one in any assay. Active and inactive are the calls of the source. The calls were made as follows: active = growth percent below 10; inactive = the rest.
I would appreciate it if you answered using one of these outcomes: active, inactive

CCOC(=O)c1cc(C(=O)c2ccc(OC)c(OC)c2)n2c1ccc1ccc3cccnc3c12 :: inactive
CCOC(=O)C1=CSC2=NC3=C(CCC/C3=C\c3ccc(Cl)cc3)C(c3ccc(Cl)cc3)N12 (stereo unspecified) :: inactive
CN(C)CCOc1cccc(NC2=C(Cl)C(=O)C(Nc3cccc(OCCN(C)C)c3)=C(Cl)C2=O)c1 :: active
Oc1ccc(-c2[nH]c3ccccc3c2-c2nc3ccccc3o2)cc1 :: inactive
CS(=O)(=O)c1nccc(-c2c(-c3cccc(OCCc4ccccc4)c3)nc3sccn23)n1 :: inactive
O=C(CCl)Oc1ccc(OC(=O)CCl)cc1 :: inactive
CC(CN(C)C)Oc1ccc(OC(C)CN(C)C)c2c1C(=O)c1ccccc1C2=O (stereo unspecified) :: inactive
CN(C)CCN(Cc1ccccc1)c1ccc2ccccc2n1 :: inactive
Cc1ccc(NCCNCC(C)(C)O)c2c(=O)c3ccc(Cl)cc3sc12 :: inactive
COc1cc(C(=O)/C=C/c2c[nH]c3ccccc23)cc(OC)c1OC :: inactive

Could you check what this test reported for CC(=O)[C@H]1CC[C@]2(C)[C@@H]1CC[C@@H]1[C@@]3(C)CC(CCC#N)(CCC#N)C(=O)C(C)(C)[C@@H]3CC[C@]12C ?
inactive

Quick one: Cc1c(Cl)cccc1NC(=O)CCCl
inactive

Quick one: O=C(Nc1ccc(OCc2nnc(-c3ccc(Cl)cc3)o2)c(F)c1)Nc1ccc(Cl)c(C(F)(F)F)c1
inactive

Quick one: CN1CCN(CCCn2c(=O)c3sc4ncccc4c3n3nnc(-c4ccccc4)c23)CC1
active

Quick one: Cn1c2ccccc2c2c3[nH][nH]c(=O)c3c3c4ccccc4[nH]c3c21
inactive

Quick one: CCCCC(CC)CN=C(N)NC(N)=NCCCCCCN=C(N)NC(N)=NCC(CC)CCCC (stereo unspecified)
active

Quick one: COc1cc2c(cc1NC(=O)C(F)(F)F)-c1ccc(NC(=O)C(F)(F)F)cc1C2
inactive

Quick one: CN(C)c1ncnc2c1nnn2C1OC(CO)C(O)C1O (stereo unspecified)
inactive

====

Test system: HS 578T breast
Assay: NCI-60 one-dose screen, 48 h
Conditions: 10 µM
The panel holds about 83,000 compounds, 20% with a hit somewhere; the sample as a whole holds those more often. Activity calls are given as the source filed them. The calls were made as follows: active = growth percent below 10; inactive = the rest.
I would appreciate it if you answered using one of these outcomes: active, inactive

Consider the worked cases shown below.
Nc1nc(Cl)nc2c1ncn2C1O[C@H](CO)[C@@H](O)[C@@H]1F (stereo not given in full) :: inactive
CC(=O)OC1CC2C(C)(C)CCC[C@]2(C)C2=C1C(O)=C(C(C)C)C(=O)C2=O (stereo not given in full) :: inactive
NC1=CC(=O)C(=O)c2cccnc21 :: inactive

Could you check what this test reported for O=C1CCn2c1c(O)c1ccccc1c2=O ?
inactive

Quick one: OCC1OC(n2ccc3c(NO)ncnc32)C(O)C1O (stereo not given)
active

The reported measurements were obtained from PubChem BioAssay (NCI).
